Hepsin (IC50 nM): recorded values
Target: activated hepsin (#4776-SE-010, R&D Systems) (UniProt P05981 45-417, limits assumed)
Sequence (P05981 45-417 limits assumed): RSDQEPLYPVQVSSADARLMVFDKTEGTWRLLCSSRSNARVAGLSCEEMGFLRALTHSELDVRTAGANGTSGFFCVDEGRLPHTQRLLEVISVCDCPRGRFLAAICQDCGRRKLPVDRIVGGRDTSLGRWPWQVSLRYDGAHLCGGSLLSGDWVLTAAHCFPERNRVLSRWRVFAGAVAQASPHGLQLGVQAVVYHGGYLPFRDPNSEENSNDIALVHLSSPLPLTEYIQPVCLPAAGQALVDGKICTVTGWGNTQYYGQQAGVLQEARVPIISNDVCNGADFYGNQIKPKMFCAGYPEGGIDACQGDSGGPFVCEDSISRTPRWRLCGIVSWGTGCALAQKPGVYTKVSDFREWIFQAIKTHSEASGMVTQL
Assay: cell-based or functional assay
Positions of bridges follow the written chain, without caps; N, C: chain ends. kbt = C-terminal Arg ketobenzothiazole
Please state the figure in nM; there is no need to write the unit.

Tell me measured Hepsin (IC50 nM) for Ac-DMKR-kbt (lactam 1-3; not fully specified; printed as Cyclo(DMK)R-kbt; also: N-terminal acetyl described as 6-acetamido) [Cyclo(DMK)R-kbt, VD3173] please.
5.9

Give recorded Hepsin (IC50 nM). Ac-GQFR-kbt [MM3122 Ac-GQFR-kbt]
0.194

Using known records, supply Hepsin (IC50 nM) for Ac-LQFR-kbt [MM3131 Ac-LQFR-kbt]
0.247

Please report Hepsin (IC50 nM) for the following binder: Ac-MQFR-kbt [MM3130 Ac-MQFR-kbt]
0.135

Name the recorded Hepsin (IC50 nM) of the item Ac-IQFR-kbt [MM3116 Ac-IQFR-kbt] in your answer.
0.14

Reference source: patent US20220380407A1
